target: human MGL from HeLa cells (Homo sapiens (Human)); assay: MGL in vitro activity assay: cleavage of [glycerol-1,3-3H]-oleyl glycerol, activated carbon filtration; conditions: 300 nM [Glycerol-1,3-3H]-oleyl glycerol, endogenously expressed MGL from HeLa cells, one hour incubation
Sequence (Q99685 whole entry): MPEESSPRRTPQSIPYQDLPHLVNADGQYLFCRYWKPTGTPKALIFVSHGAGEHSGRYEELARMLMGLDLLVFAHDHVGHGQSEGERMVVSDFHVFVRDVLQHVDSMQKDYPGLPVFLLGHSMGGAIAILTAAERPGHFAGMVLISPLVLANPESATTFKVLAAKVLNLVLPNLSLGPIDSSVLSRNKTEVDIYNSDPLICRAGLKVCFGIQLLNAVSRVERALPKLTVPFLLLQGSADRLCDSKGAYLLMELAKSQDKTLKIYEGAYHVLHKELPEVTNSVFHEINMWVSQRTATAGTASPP
valueType: IC50 (µM)

1. C[C@H]1c2nn(C)c(-c3cc(C(F)(F)F)nn3C)c2CCN1C(=O)c1c(F)cnc2c1ccn2C [Example 47] | 0.00067
2. Cc1ccc2cc(C(=O)N3CCc4c(nn(C)c4-c4cc(C(F)(F)F)nn4C)[C@@H]3C)c(F)cc2n1 [Example 91] | 0.21
3. COc1nn(C)cc1-c1c2c(nn1C)[C@H](C)N(C(=O)c1ccc3ncccc3c1)CC2 [Example 16] | 0.37
4. Cc1cc(C(=O)N2CCc3c(nn(C)c3-c3cc(C(F)(F)F)n(C)n3)[C@@H]2C)c2cc(F)ccc2n1 [Example 132] | 0.027

[P] C[C@H]1c2nn(C)c(-c3cc(C(F)(F)F)n(C)n3)c2CCN1C(=O)c1ccc2ncsc2c1 [Example 120]
[Q] C[C@H]1c2nn(C)c(-c3cnn(C)c3)c2CCN1C(=O)c1ccc2ncccc2c1 [Example 62]
q: Given the listed records, identify the one among P and Q with higher IC50. Answer by stating the label of the chosen item.
a: Q

====

biological target: human MGL from HeLa cells (Homo sapiens (Human)); test: MGL in vitro activity assay: cleavage of [glycerol-1,3-3H]-oleyl glycerol, activated carbon filtration; conditions: 300 nM [Glycerol-1,3-3H]-oleyl glycerol, endogenously expressed MGL from HeLa cells, one hour incubation
pIC50: −log10 of the molar value.
valueType: pIC50

Observe how each entry below is paired with its result.
1. Cc1nc2ccc(C(=O)N3CCc4c(nn(C)c4-c4cc(C(F)(F)F)nn4C)[C@@H]3C)cc2s1 | 7.26
2. C[C@H]1c2nn(C)c(-c3cc(C(F)(F)F)nn3C)c2CCN1C(=O)c1cccc2ncsc12 | 7.66
3. C[C@H]1c2nn(C)c(-c3cc(C(F)(F)F)nn3C)c2CCN1C(=O)c1ccc(F)c2c1cnn2C | 8.25
4. CCn1nc(C(F)(F)F)cc1-c1c2c(nn1C)[C@@H]1CCC[C@H](C2)N1C(=O)c1cccc(C)c1 | 6.80
5. Cn1nc(C(F)(F)F)cc1-c1c2c(nn1C)[C@@H]1CCC[C@H](C2)N1C(=O)c1ccc2ncccc2c1 | 7.66
6. COc1cccc(C(=O)N2[C@@H]3CCC[C@H]2c2nn(C)c(-c4cc(C(F)(F)F)nn4C)c2C3)c1C (stereo in doubt) | 7.72

[P] C[C@H]1c2nn(C)c(-c3cc(C(F)(F)F)nn3C)c2CCN1C(=O)c1ccc2c(c1)OCCC2
[Q] C[C@H]1c2nn(C)c(-c3cnn(C)c3C(F)(F)F)c2CCN1C(=O)c1ccc2ncsc2c1
q: Identify the entry with the smaller pIC50: P or Q . Answer by stating the label of the chosen item.
a: Q
(Q: 5.53, P: 6.96)

====

target: human MGL from HeLa cells (Homo sapiens (Human)); assay: MGL in vitro activity assay: cleavage of [glycerol-1,3-3H]-oleyl glycerol, activated carbon filtration; conditions: 300 nM [Glycerol-1,3-3H]-oleyl glycerol, endogenously expressed MGL from HeLa cells, one hour incubation
valueType: IC50 (nM)

1) COc1cccc(C(=O)N2[C@@H]3CC[C@H]2c2nn(C)c(-c4cc(C(F)(F)F)nn4C)c2C3)c1C [Example 89] | 66
2) C[C@H]1c2nn(C)c(-c3cc(C(F)(F)F)nn3C)c2CCN1C(=O)c1ccc2ncccc2c1 [Example 65] | 39
3) C[C@H]1c2nn(C)c(-c3cc(C(F)(F)F)nn3C)c2CCN1C(=O)c1nn(C)c2ccc(F)cc12 [Example 22] | 30
4) Cn1nc(C(F)(F)F)cc1-c1c2c(nn1C)[C@@H]1CCC[C@H](C2)N1C(=O)c1noc2ccccc12 [Example 84] | 5.1

[A] C[C@H]1c2nn(C)c(-c3cc(C(F)(F)F)nn3C)c2CCN1C(=O)c1c[nH]c2cccc(F)c12 [Example 5]
[B] C[C@H]1c2nn(C)c(-c3ccnn3C3CC3)c2CCN1C(=O)c1ccc2ncccc2c1 [Example 68]
q: Identify the entry with the smaller IC50: A or B . Answer by stating the label of the chosen item.
a: A
(A: 37 nM, B: 4200 nM)
